# Lookup of reported koff keyed by entry
STUDY_TARGET: SARS-COV-2 RBD extracellular domain expressed with a C-terminal myc-myc-hexahistidine tag (SARS-CoV-2)
EXPERIMENTAL_DETAILS: SPR (Biacore), mAb captured by anti-human Fc, RBD-mmH in solution, 25 C

Here is how some binders turned out for koff.
# BINDER, koff
records = [
    ("mAb14283 (antibody, V domains shown) VH: QVQLQESGPGLVKPSGTLSLTCDVSGGSISSNNWWSWVRQRPGKGLQWIGEIYHNENTNYNPSLKSRVIMSIDKSKNQFSLKLTSVTAADTAVYYCARGDVLDWFDPWGQGTLVTVSS VL: QSALTQPASVSGSPGQSTTISCTGTSSDVGGYNYVSWYQQYPGKAPKLMIYDVTNRPSGVSHRFSGSKSGNTASLTISGLQAEDEADYYCSSYTSSSTVIFGGGTKLTVLG", "0.00158 s⁻¹"),
    ("mAb15165 (antibody, V domains shown) VH: EVQLVESGGGLVQPGGSLRLSCAASGFTVSSNYMSWVRQAPGKGLEWVSAIYSGDSTYYADSVKGRFTISKDNSKNTLYLQMNSLRGEDTAVYYCARLGGALQAYDGAFDYWGQGTLATVSS VL: QSALTQPASVSGSPGQSITISCTGTSSDFGSYNLVSWYQQHPGKAPKLMIYEGNKRPSGVSIRFSGSKSGNTASLTISGLQAEDEADYYCSSYAGSSTWVFGGGTKLTVLG", "0.000212 s⁻¹"),
]

Kindly consider the entry below.
Request: Suppose we examine the binder mAb14280 (antibody, V domains shown) VH: QVQLVQSGAEVKKPGASVRVSCKASGYTFTGNYIHWVRQAPGQGLEWMAWINPNSGGKNYAQKFQGRVTLTRDTSVNTAYMELSRLRSDDTAMYYCARDVNYNILTGPGGLWGQGTLVTVSS VL: QSALTQPPSASGSPGQSVTISCTGTSSDVGGYNFVSWYQQHPGKAPKLMIYEVSKRPSGVPDRFSGSKSGNTASLTVSGLQAEDEADYYCSSYAGSNNFVFGTGTKVTVLG ; what koff value has been reported?
Result: 0.0255 s⁻¹
